test: yeast display, Sf9 membrane polyspecificity reagent, FACS + sequencing; frameworks hold sequencing errors

Sequence Content	polyreactivity (PSR sort gate)
QVQLVESVGGLFQAGGSLRLSCAASGSIFAYNTMGWYRQAPGKEREFVAAISWRGGSTYYADSVKGHFTISGDNAKNTFYLQMNSLKPEDTAVYYCNARYRNTFYSRRYDYWGQGTQVTVSS	low polyreactivity
QVQLVESGGGLVQAGGSLRLSCAASGTTFEVNAMGWYRQAPGKERELVATITRSGGSTYYADSVKGRFTISRDNAKNTVYLQMNSLKPEDTAVYYCNALWELKWGQGTQVTVSS	low polyreactivity
QVQLVESGGGLVQAGGSLRISCAASGSIFQNYAMGGYRQAPGKERELVAAINDDSTYYADSVKGRFTISRDNAKNPVDLQMNSLKPEDTAVYYGNKEFLRRQRVTFWHLGGYWGQGTQVTVSS	low polyreactivity

====

experiment: yeast display, Sf9 membrane polyspecificity reagent, FACS + sequencing; frameworks hold sequencing errors

Sequence Content	polyreactivity (PSR sort gate)
QVHLVESGGGLVQAGGSLRLSCAASGSIFAVYAMGWYRQEPGKERELVAVITRSGGSTYYADSVKGRFTISRDNAKKTVYLQLYSLKPEDTAVYYCAARSSYLLRYDYWGQGTQVTVSS	high polyreactivity
QVQLVESGGGLVQAGGSLRLSCAASGRTSPGYAMGWYRQAPGKEREFVAGISRGGGSTYYADSVKGRFTISRDNAKNTVYLQMNSLKPEDTEVYYCNVRGPGFYWNWGQSHYYGYDYWGQGTQVTVSS	high polyreactivity
QVHLVESGGGLVQAGGSLRLSSAASGRTFRGNAMGWYRQPPGKEREFDAVISGSGGSTYYADSVKGRFTISRDNAKNTVYLQMNSLKPEDTAVYYCGDKPSRWQRYDYWGQGTQVTVSS	high polyreactivity
QVQLVESGGGLVQAGGSLSLSCAASGSIFAGNAMGWYRQAPGKERELVAAIRWSTGSTYYADSVKGRFTISRDNAKNTVYLQMNSQKPEDTAVYYCAATDTTFYGIVRYEFWGQGTQVTVSS	low polyreactivity
QVQLVESGGGLVQAGGSLRLSCPASGFTFGYYAMGWYRQSPGKESELVATITSSGASTYADSVKGRFTISGDNAKNTVYLQMISLKPEDTAVYYCAADRLPSYWSWYGYDYWVQGTQVTVSS	high polyreactivity
QVQLVESGGGLVQAGGSLRLSCAASGRTFGTYAMGWYRQAPGKERELVAAISSGGSTYADSVKGRFTISRDNAKNTVYLQRNSLTPEETAVYYCNADFRARNYHYYPRRFKYYYWGQGTQVTVSS	high polyreactivity
QVQLVESGGGLDQAGGSLRLSCAASGITFSTYAMGWYRQAPGKEREFVAAISASGGTTYYADSVKGRFTISRDNAKNTVYLQMNSLKPEDTAVYYCAADRFRVYLIYIWAMGYWGQGTQVTVSS	high polyreactivity
QVQLVESGGGLVQAGGSLRLSCAASGFTFIRYAMGWYRQAPGKERELVAAIRGTGTSTYYADSVKGRFTISRDNAKNTVYLQMNSLKPEDTAVYYCNKVAGRSPYTRYDYWGQGTQVTVSS	low polyreactivity
QVQLVESGGGLVQAGGSLRLSCGASGFTFRPYAMGWYRQAPGKERELVAAITSGDSTNYADSVKGRFTISCDNAKNTVYLQMNSLKPEDTAVYYCAADSTGRPSVSYDYWGQGTQVTVSS	low polyreactivity
QVQLVESGGGLVQAGGSLRLSCAASGRIFERNAMGGDRQAPGKEREFVAASSWSGGSTHYADSVKGRFTSSRDNAKNTVYVQMNSLKPEDTAVYFCAARRRKAGRPSDRYYYWGQGTQVTVSS	high polyreactivity
QVQLVESGGGLVQAGGSLRLSCAASGRTSLVYAMGWYRQAPGKERQLVAAISRGGTTNYADSVKGRFTISRDNAKNTVYLQMNSLKPEDTAVYYCAARTIYHVRPMYYWGQGTQVTVSS	high polyreactivity

====

test: yeast display, Sf9 membrane polyspecificity reagent, FACS + sequencing; frameworks hold sequencing errors
Readout Name: polyreactivity (PSR sort gate)

Sequence Content	Observed Value
QVQLVESGGGLVQAGGSLRLSCAASGRIFTKYAMGWYRQAPGKERELVAGINWRDGRTYYADSVKGRFTLSRDNAKNTVYLQMISLKPVDTAVYYCAGVSIFGRRWMYYWGQGTQVTVSS	high polyreactivity
QVQLVESGGGLVQAGGSLRLSCAPSGSTFPQYAMGWYRQAPGKERELVADISSGVSTNYADSVKGRFTISRDNAKNTVYLLMNSLKPEDTAVYYCAAQAYVEGVYRYDYWGQGTQVTVSS	low polyreactivity
QVQLVESGGGLVQAGCSLRLSCAASGSIFAPYAMGWYRQAPGKERELVAAISYSGGSTYYADSVKGRLTISRDNAKNTVYLQMNSLKPEDTAVYYCAARVLHQDFYKRYYWGQGTQVTVSS	high polyreactivity
QVQLVESGGGLVQAGGSLRLSCAASGGTFYVYAMGWYRQAPGKERELVAAISTSDGITYYADSVKGRFTISRDNAKNTVYLQMNSLNPEDTAVYYCAAVFFSSFTYAYDYWGQGTLVTVSS	high polyreactivity
QVQLVESGGGLVHAGGSLRLSCAASGRIFQYYAMGWYRQAPGKERELVAAIDQSGDTTYYADSVKGRFTISRDNAKNTVYLQMNSLKPEDTAVFYCAAGYDWAYHWVPQWMYFWGQGTQVTVSS	low polyreactivity
QVQLVESGGGLVQAGGSLRLSCAASGLTFRYYAMVWYRQAPGKERELVATITRAGRTNYADSVKGRFTISRDNAKNTVYLQMNSLKPEDTAVYYCATKRVLTGFDSWGQGTQVTVSS	high polyreactivity
QVQLVESGGGLVQAGGSLRLSCAASGSTFFYYAMGWYRQAPGKERELVAAISQSSASTYYADSVKGRFTISRDNAKNTIYLQMNSLKPEDTAVYYCAADYWSVPYIYEYWGQGTQVTVSS	high polyreactivity
QVQLVESGGGLVQAGGSLRLSCAASGRTFYTYGMGWYRQAPGKERELVAAITETGDSTYYADSVKGRFTISRDNAKNTVYLQMNSLKPEDTAVYYCAADYRAPLDYWGQGTQVTVSS	low polyreactivity
QVHLVESGGGLVQAGGSLRLSCAASGIIFYDNTMGWYRQAPGTERELVASITWRGGSTYYADSVKGRFTISRDNAKNTVYLQMNSLKPEDTAVYYCNADSSDDYDYWGQGTQVTVSS	low polyreactivity
QVQLVESGGGLVQAGGSLRLSCAASGRTFSRYAMGWYRQAPGKERELVAAISRSGGITYYADSVKGRFTISRDNAKNTVYLQMNSLKPEDTAVYYCAAYVRGWGGDDYWGQGTQVTVSS	high polyreactivity
QVQLVESGGGLVQAGGSLRLSCAASGSTFWTNAMAWYRQSPGKERELVATITYSTGTYADSVKGRFTISRDNAKNTVYLQMNSLKPEDTAVYYCAAEVVAQMNYWGQGTQVTVSS	low polyreactivity

====

assay: yeast display, Sf9 membrane polyspecificity reagent, FACS + sequencing; frameworks hold sequencing errors
Readout Name: polyreactivity (PSR sort gate)

Sequence Content	Observed Value
QVQLEESGRGLVQAGGSLPLIFAASGSIIRGYAMGWYRPAPGKERELVAAINWSGSSTYYADSVKGRLTISRDNAKNTVNLQMNSLIPEDTAVYYCALVYYNRNLGGDYWGQGTKVTVSS	low polyreactivity
QVQLVESGGGLVQAGGSLRLSCAASGSIFQYYVMGWYRQAPGKERELDAAIRRSGTTYYADSVKGRFTISRDNAKNTVYLQMNSLKPEDTAVYYCNADSIYYYYLIEYEYWGQGSQVTVSS	low polyreactivity
QVQLVDSGGGLVQAGGSLRLSCAASGSIFHANAMGWYRQAPGKERELVAVISQGGGSTYYADSVKGRFTISRDNAKNTVYLQMNSLKPEDTAVYYCAAYYYYSAYGDDYWGQGTQVTVSS	high polyreactivity
QVQLVESGGGLVQAGGSLRLSCAASGLTFDYYAMGWYRQAPGKERELVAAISASCSSTYYADSVKGRFTISRDNAKNTVYLQMNSLKPEDTAVYYCAAVTKSSVPGSRYDYWGQGTQVTVSS	high polyreactivity
QVQLVESGGGLVQAGGSLRLSCAASGLTFAYYAMGWYRQAPGKERELVAAITSSGTSTYYADSVKGRFTISRDNAKNTVYLQMNSQKPEDTAVYYCNARVYGYRYTYRMDYWGQGTQVTVSS	high polyreactivity

====

experiment: yeast display, Sf9 membrane polyspecificity reagent, FACS + sequencing; frameworks hold sequencing errors

Sequence Content	polyreactivity (PSR sort gate)
QVQLVESGGGLVQAGGSLRLSCAASGSTFVRNAMGWYRQAPGKERELVAAITSSGGSTYYADSVKGRFTISRDNAMKTVYLQMNSLKPEDTAVYYCNAELGSDTANYDYWGQGTQVTVSS	low polyreactivity
QVQLVESGGGLVQAAGILRLSCAASGSIFVTNAKGWYRQAPGKERELVAAISSGGNTNYADSVKGRFTISRDNAKNTVYLQINSLKPVDTAVYYCAKDPDKVDSVDMDYWGHGTQVTVSS	low polyreactivity
QVHLVESGGGLVQAGGSLRISCAASGSNFSYYARGWYRQAPGKESELVAAISQSGGTTYYADSVKGRFTISRDHAKNTVYLQMNCLKPEDTAVYYCAARAPSSFDTQYYYWGLGTQVTVSS	low polyreactivity
QVQLVDSGGGLVQAGGSLRLSCAASGITFYFNAMGWYRQAPGKERELVAAITRGGRTNYADSVKGRFTISRDNAKNTVYLQMNSLKPEDTAFYYCAAYIYRGRETNGPDYYYWGQGTQVTVSS	low polyreactivity
QVQLVESGGGLVQAGGSLRLSCAASGSIGTYVMGWYRQAPGKERELVAAISLSGGSTYYADSVKGRFTISRDNAKNTVYLQMNSLKPEDTAVYYCNAVKATRNTGSDYWGQGTQVTVSS	low polyreactivity
QVQLVESGGGLVQAGGSLRLSCAASGFIFTYNAMGWYRQAPGKETEFVASISRSGGRTYYADSVKGRFTISRDNAKNTVYLQMNSLKPEDTAVYYCAARNAYVYGMDYWGHGTQVTVSS	low polyreactivity
QVQLVESGGGLVQAGGSLRLSCAASGRIFVTYAMGWYRQAPGKERELVAAITSRGGRTYYADSVKGRFTISRDNAKKTVYLQMNSLKPEDTAVYYCAAYPGPGARYYYWGQGTQVTVSS	high polyreactivity
QVQLVESGGGLVQAGGSLRLSCAASGRTFKYYAMGWYRQAPGKERELVATITYSGGSTYYADSVKGRFTISRDNAKNTVYLQMNSLKPEDTAVYYCNKVIFLSQSSYSFHYAYDYWGQGTQVTVSS	high polyreactivity
QVQRVESGVGLVQAGGSLRLSCAASGRIFRPYAMGWFRQARGNERELVAAITYSGGSTRYADSVKGRFTLSRDNAKNTVYIQMNSLKPEDTAVYYCAADLSYQDDPRWSYDYWGQGTHVTVSS	high polyreactivity
QVQRVESGGGLVQAGGSLRLSCAASGNIFVYYAMGWYRQAPGKERELVAAISSDVSTYYADSVKGRFTISRDNAKNTVYLQMNSLKPEDTAVYYCATTGYGSYVIYWGQGTQVTVSS	low polyreactivity
QVQLVESGGGLVQAGGSLRLSCAASGRIFWGYAMGWYRQAPGKERELVAAITSGGSTYYADSVKGRFTFSRDNAKNTVYLQMNSLKPEDTAVYYCAAYYVLKLRYGHRYYYWGQGTQVTVSS	high polyreactivity
QVPLVESGGGLVQAGGSLRLSCAASGSTFTRYAMGWYRQAPGKEREFVAGISSRGSRTYYADSVKGRFTISRDNAKNTVYLQMNSLKPEDTAVYYCAVSGNHVSPPYGYWGQGTQLTVSS	high polyreactivity
QVQLVESGGGLVQAGGSLRISCAASGSTYYNAMGWYRQAPGKERELVAAFRFRSGSTYYADSVKGRFTISRDNAKNTVYLQMNSLKPEDTAVYYCAADYKRSWRYAYNYWGQGTQVTVSS	high polyreactivity
QVQLVESGGGVVQAGGSLRLSCAASGRTIWSNAMGWYRQAPGKERELVAAISRTGGRTYYADSVKGRFTISRDNAKNTVYLQMNSLKREDTAVYYCATGSGVYDYWGQGTQLTVSS	high polyreactivity
QVQLVESGGGLVQAGGSLRLSCAASGSTFVDYAMGWYRQAPGKEREFVAAISFSGDSTYYADSVKGRFTISRDNAKNSVYLQLNSLKPEDTAVYYCAASRPYYNRQYYRSWRDDYWGQGTQVTVSS	low polyreactivity
QVQLVESGGGLVQAGGSLRLSCAASGLTLRNYAMGWYRQAPGKERELVAAITTGGGRTYYADSVKGRFTISRDNAKNTVYFQMNSVKPEDTAVYYCAADAPREYVDHYKYDDDYWGQGTQVTVSS	low polyreactivity
QVQLVESGGGLVQAGGSLRLSCAASGLTFWDYAMGWYRQAPGKETELVAAISNDDSTYADSVKGRFTISRDNAKNTVYLQMNSLKPEDTAVYYCAAQSYYTWPEMGYWGQGTQVTVSS	low polyreactivity
QVQLVESGGGLVQAGGSLRLSCSASGRTLGRNAMGWYRPAPGKERELVAAISWGGGDTSYADSVKGRFTISRDNAKNTVYLQMNSLKPEDTAVYYCNRYYTPYRRWGYDYWGQGTQVTVSS	high polyreactivity
QDQLVESGGGLVQAGGSLRLSCAASGSTFIDNVMGWYRQPPGQERELVAAINSGGSTDYADSLKGRFTISRDNAKNTVYLLMNRLKPEDTAVYYCNAYHIVIYDYWGQGTQVTVSS	low polyreactivity
QVQLVESGGGLVQAGGSLRLSCAASGSTFTSYTMGWYRQAPGKERELVARNTRGGGSTYYADSVKGRFTISRDNAKNTVYLQMNSLKPEDTAVYYCAKQVVGRAYYSWGQGTQVTVSS	low polyreactivity
QVQLVESGGGLVQAGGSLRLSCAASGSTFYTYTAMGWYRQAPGKERELVAAITWRGGSTYYADSVKGRFTISRDNAKNTVYLHMNRLKPEDTSGYYCAADCVMTWWAYDYWGQGTQVTVSS	high polyreactivity

Attribution: the nanobody polyreactivity screen of Harvey et al. (2022)
